TGT: Phosphatidylinositol 3-kinase regulatory subunit alpha/4,5-bisphosphate 3-kinase catalytic subunit alpha isoform (Homo sapiens, UniProt P27986+P42336)
Sequence (P27986 whole entry, canonical isoform): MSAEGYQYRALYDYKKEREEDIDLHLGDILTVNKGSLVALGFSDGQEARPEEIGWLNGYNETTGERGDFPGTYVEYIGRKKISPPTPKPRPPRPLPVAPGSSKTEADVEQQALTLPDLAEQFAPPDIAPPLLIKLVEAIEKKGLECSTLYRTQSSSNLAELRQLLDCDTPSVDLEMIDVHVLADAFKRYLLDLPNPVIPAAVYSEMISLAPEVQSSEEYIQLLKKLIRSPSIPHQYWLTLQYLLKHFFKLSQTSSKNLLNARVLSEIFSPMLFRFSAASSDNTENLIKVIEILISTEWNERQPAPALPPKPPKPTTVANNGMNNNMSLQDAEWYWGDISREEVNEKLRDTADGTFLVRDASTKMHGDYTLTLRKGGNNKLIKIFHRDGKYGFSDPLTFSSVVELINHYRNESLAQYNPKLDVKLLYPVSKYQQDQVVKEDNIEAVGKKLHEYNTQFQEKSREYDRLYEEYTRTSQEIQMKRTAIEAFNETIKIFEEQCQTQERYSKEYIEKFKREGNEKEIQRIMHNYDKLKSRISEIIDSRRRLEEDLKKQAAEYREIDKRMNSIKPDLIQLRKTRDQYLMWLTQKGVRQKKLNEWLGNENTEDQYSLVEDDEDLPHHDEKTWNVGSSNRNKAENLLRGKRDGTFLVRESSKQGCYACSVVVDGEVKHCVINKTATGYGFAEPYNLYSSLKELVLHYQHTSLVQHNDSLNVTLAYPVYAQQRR
Sequence (P42336 whole entry, canonical isoform): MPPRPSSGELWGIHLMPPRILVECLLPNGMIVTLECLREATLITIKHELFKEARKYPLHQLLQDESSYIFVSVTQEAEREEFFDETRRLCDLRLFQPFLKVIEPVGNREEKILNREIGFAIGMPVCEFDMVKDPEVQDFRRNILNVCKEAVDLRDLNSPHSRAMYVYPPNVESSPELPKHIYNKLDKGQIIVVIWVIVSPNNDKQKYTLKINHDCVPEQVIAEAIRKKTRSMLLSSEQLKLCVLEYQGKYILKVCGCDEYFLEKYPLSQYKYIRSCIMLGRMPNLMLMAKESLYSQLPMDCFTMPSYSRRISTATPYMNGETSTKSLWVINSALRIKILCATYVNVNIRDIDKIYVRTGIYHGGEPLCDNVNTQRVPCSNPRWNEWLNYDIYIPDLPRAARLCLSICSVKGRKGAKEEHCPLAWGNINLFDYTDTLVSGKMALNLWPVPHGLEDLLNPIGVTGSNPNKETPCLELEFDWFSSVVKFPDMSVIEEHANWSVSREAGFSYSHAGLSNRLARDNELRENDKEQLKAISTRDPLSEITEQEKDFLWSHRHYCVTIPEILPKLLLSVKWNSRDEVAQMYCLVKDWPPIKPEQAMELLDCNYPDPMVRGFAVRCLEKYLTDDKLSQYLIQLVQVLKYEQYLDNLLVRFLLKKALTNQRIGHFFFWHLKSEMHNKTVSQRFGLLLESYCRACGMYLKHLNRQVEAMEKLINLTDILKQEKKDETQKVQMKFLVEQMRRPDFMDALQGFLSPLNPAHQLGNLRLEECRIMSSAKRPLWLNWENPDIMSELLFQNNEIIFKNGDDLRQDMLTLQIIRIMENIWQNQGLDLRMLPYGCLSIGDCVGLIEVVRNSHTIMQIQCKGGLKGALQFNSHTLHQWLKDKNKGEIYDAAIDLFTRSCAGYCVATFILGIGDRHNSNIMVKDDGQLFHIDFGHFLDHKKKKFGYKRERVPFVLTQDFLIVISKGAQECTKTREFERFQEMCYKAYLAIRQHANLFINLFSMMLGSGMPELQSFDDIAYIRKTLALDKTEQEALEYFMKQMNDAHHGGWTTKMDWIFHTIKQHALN
PROTOCOL DESCRIPTION: Inhibition of recombinant human full-length N-terminal His6-tagged p110alpha/full length untagged human p85alpha expressed in baculovirus infected Sf21 insect cells using PIP2 as substrate measured after 15 to 30 mins by fluorescence polarization assay
OBSERVATION TYPE: pIC50
Here pIC50 is given on a logarithmic scale as minus log10 of the concentration in mol/L.

Data request, read-out pIC50, for "CNC(=O)Nc1ccc(-c2nc(N3CC4CCC(C3)O4)c3cnn(C4CCC5(CC4)OCCO5)c3n2)cc1"
5.93
